Target: panel of more than 300 wild-type and mutant kinases (313 kinase panel) (Homo sapiens)
Assay: Kinase profiling in a biochemical assay panel (mobility shift assays and ELISA), %-inhibition at 1 μM; selectivity entropy
Details: kinase CHK1; 1 μM compound
parameter: %-inhibition, CHK1 (%)
Give the quantity in %, number only.

Worked cases, answers included:
| compound | %-inhibition, CHK1, % |
| --- | --- |
| COc1cc(Nc2c(C#N)cnc3cc(OCCCN4CCN(C)CC4)c(OC)cc23)c(Cl)cc1Cl [bosutinib] | 83 |
| CC(=O)Nc1cccc(-n2c(=O)n(C3CC3)c(=O)c3c(Nc4ccc(I)cc4F)n(C)c(=O)c(C)c32)c1 [trametinib] | -0.719 |

query: Please report the recorded %-inhibition, CHK1 for O=S(=O)(c1cccc2cnccc12)N1CCCNCC1 [fasudil] .
result: -11

query: Moving on to Cc1cn(-c2cc(NC(=O)c3ccc(C)c(Nc4nccc(-c5cccnc5)n4)c3)cc(C(F)(F)F)c2)cn1 [nilotinib]
result: -15

query: One more compound: CO[C@H]1C[C@@H]2CC[C@@H](C)[C@@](O)(O2)C(=O)C(=O)N2CCCC[C@H]2C(=O)O[C@H]([C@H](C)C[C@@H]2CC[C@@H](OC(=O)C(C)(CO)CO)[C@H](OC)C2)CC(=O)[C@H](C)/C=C(\C)[C@@H](O)[C@@H](OC)C(=O)[C@H](C)C[C@H](C)/C=C/C=C/C=C/1C [temsirolimus]
result: 4.42

query: Query N#CC[C@H](C1CCCC1)n1cc(-c2ncnc3[nH]ccc23)cn1 [ruxolitinib] next
result: 4.66

query: What would you report for CS(=O)(=O)CCNCc1ccc(-c2ccc3ncnc(Nc4ccc(OCc5cccc(F)c5)c(Cl)c4)c3c2)o1 [lapatinib] ?
result: 12

query: Next compound up: CO[C@H]1C[C@@H]2CC[C@@H](C)[C@@](O)(O2)C(=O)C(=O)N2CCCC[C@H]2C(=O)O[C@H]([C@H](C)C[C@@H]2CC[C@@H](OCCO)[C@H](OC)C2)CC(=O)[C@H](C)/C=C(\C)[C@@H](O)[C@@H](OC)C(=O)[C@H](C)C[C@H](C)/C=C/C=C/C=C/1C [everolimus]
result: 4

query: Another: CNC(=O)c1cc(Oc2ccc(NC(=O)Nc3ccc(Cl)c(C(F)(F)F)c3)c(F)c2)ccn1 [regorafenib]
result: -3

query: Moving on to C[C@@H](Oc1cc(-c2cnn(C3CCNCC3)c2)cnc1N)c1c(Cl)ccc(F)c1Cl [crizotinib]
result: 10

query: How about this compound: COc1cc2nccc(Oc3ccc(NC(=O)C4(C(=O)Nc5ccc(F)cc5)CC4)cc3)c2cc1OC [cabozantinib]
result: 4.42

query: Item: Cc1ccc(C(=O)Nc2ccc(CN3CCN(C)CC3)c(C(F)(F)F)c2)cc1C#Cc1cnc2cccnn12 [ponatinib]
result: 3.23

query: COc1cc2c(Nc3ccc(Br)cc3F)ncnc2cc1OCC1CCN(C)CC1 [vandetanib] ?
result: 27

query: And the next one, Cc1ccc(Nc2nccc(N(C)c3ccc4c(C)n(C)nc4c3)n2)cc1S(N)(=O)=O [pazopanib] ?
result: -7

query: Quick one: CCCS(=O)(=O)Nc1ccc(F)c(C(=O)c2c[nH]c3ncc(-c4ccc(Cl)cc4)cc23)c1F [vemurafenib]
result: 4

Data origin, for the record: paper PMC3961306
